From: patent US11673891B2

Tested on: human adult PBMCs
Test: TNF production by ELISA after stimulation of human adult PBMCs
Type: cell-based
Conditions: adult PBMCs, 33 μM, 18 hours, ELISA; median, N=3-5; unit not given (FIG. 6B/7B legends: TNF concentration in ng/ml)
Experimental: Table 1. […] Specifically, TNF production was measured by ELISA after stimulation of adult PBMCs with compound 037 analog family or the compound R848 at 33 μM for 18 hours. […] ELISAs and Multiplex-Analyte Assays. […] Assays were read and analyzed on the Luminex® 100/200™ System and xPOTENT® software (Luminex, Austin, Tex.). […]
endpoint label: TNF (Median)

# compound, target system, endpoint label, assay result
data = [
    ("Cc1ccc(C(=O)Nc2cc(-c3cn4cc(F)cnc4n3)ccc2C)c(C(F)(F)F)c1", "human adult PBMCs", "TNF (Median)", 2.1615),
    ("COc1cnc2nc(-c3ccc(C)c(NC(=O)c4ccccc4C(F)(F)F)c3)cn2c1", "human adult PBMCs", "TNF (Median)", 0.0705),
    ("Cc1ccc(-c2cn3cc(F)cnc3n2)cc1NC(=O)c1ccc(F)cc1C(F)(F)F", "human adult PBMCs", "TNF (Median)", 1.101),
    ("Cc1ccc(-c2cn3cccnc3n2)cc1NC(=O)Cc1ccccc1", "human adult PBMCs", "TNF (Median)", 0.008),
    ("Cc1ccc(-c2cn3cc(F)cnc3n2)cc1NC(=O)C(CO)c1ccccc1 (stereo not drawn)", "human adult PBMCs", "TNF (Median)", 0.008),
    ("Cc1cnc2nc(-c3ccc(Cl)c(NC(=O)c4ccccc4C(F)(F)F)c3)cn2c1", "human adult PBMCs", "TNF (Median)", 0.1455),
    ("Cc1ccc(-c2cn3cc(F)cnc3n2)cc1NC(=O)C(C)(C)c1ccccc1", "human adult PBMCs", "TNF (Median)", 0.24),
    ("CCC(C(=O)Nc1cc(-c2cn3cccnc3n2)ccc1C)c1ccccc1 (stereo not drawn)", "human adult PBMCs", "TNF (Median)", 2.403),
]

Query: // query TNF (Median) value for entry Cc1cnc2nc(-c3ccc(C)c(NC(=O)c4ccccc4Cl)c3)cn2c1
Result: 2.5245
